Ref: ChEMBL document CHEMBL1131617

target: D(1A) dopamine receptor (Rattus norvegicus); experiment: Relative affinity for Dopamine receptor D1 in striatum using [3H]SCH-23390
Sequence (P18901 whole entry): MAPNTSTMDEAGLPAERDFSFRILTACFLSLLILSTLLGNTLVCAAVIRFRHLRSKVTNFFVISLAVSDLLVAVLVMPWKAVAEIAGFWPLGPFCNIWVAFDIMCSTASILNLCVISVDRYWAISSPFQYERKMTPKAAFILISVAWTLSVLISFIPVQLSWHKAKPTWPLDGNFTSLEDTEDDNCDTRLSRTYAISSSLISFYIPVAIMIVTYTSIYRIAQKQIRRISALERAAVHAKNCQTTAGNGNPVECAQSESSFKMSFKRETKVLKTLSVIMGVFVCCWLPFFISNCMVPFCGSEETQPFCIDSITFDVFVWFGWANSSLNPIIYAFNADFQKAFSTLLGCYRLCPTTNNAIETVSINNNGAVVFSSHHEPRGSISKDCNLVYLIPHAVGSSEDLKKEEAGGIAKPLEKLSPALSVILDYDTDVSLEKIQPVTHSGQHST
Threshold-based label: IC50 under 5 µM gives yes, IC50 not under 5 µM gives no.

(Q) Please check: IC50 for CC[C@@H]1CC2C[C@@H]3c4[nH]c5ccc(O)cc5c4CCN(C2)C13 , strictly under 5 µM or not?
(A) no

(Q) Please check: IC50 for CN1CCc2c([nH]c3ccccc23)C(c2ccccc2)C1 (stereo not drawn) , strictly under 5 µM or not?
(A) no

(Q) Please check: IC50 for CC[C@H]1C[C@@H]2C[C@H]3c4[nH]c5ccc(OC)cc5c4CCN(C2)[C@@H]13 [IBOGAINE] , strictly under 5 µM or not?
(A) no

(Q) Please check: IC50 for CCN1CCc2c(sc3ccccc23)C(c2ccc(Cl)c(Cl)c2)C1 (stereo not drawn) , strictly under 5 µM or not?
(A) no

(Q) Please check: IC50 for CCN1CCc2c(sc3ccccc23)C(c2ccccc2)C1 (stereo not drawn) , strictly under 5 µM or not?
(A) yes

(Q) Please check: IC50 for COc1cc2c(cc1OC)C(c1ccccc1)CN(C)CC2 (stereo not drawn) , strictly under 5 µM or not?
(A) yes
